Measured MIC of individual entries
Tested on: E. coli SKF 12140
Test: agar-dilution MIC test
Type: cell-based
The reply should contain only the number, in µg/mL.

Compound | Test system | Value unit | MIC
CC(=O)N[C@H]1[C@H](OC2c3ccc(c(Cl)c3)Oc3cc4cc(c3O)Oc3ccc(cc3Cl)CC3NC(=O)C(N)c5ccc(O)c(c5)Oc5cc(O)cc(c5)C(NC3=O)C(=O)NC4C(=O)NC3C(=O)NC2C(=O)NC(C(=O)OCCCCCl)c2cc(O)cc(O)c2-c2cc3ccc2O)O[C@H](CO)[C@@H](O)[C@@H]1O.Cl (stereo partly drawn) [Example 5] | E. coli SKF 12140 | µg/mL | 128

Simply: COC(=O)C1NC(=O)C2NC(=O)C(NC(=O)C3NC(=O)C4NC(=O)C(Cc5ccc(c(Cl)c5)Oc5cc3cc(c5O)Oc3ccc(cc3Cl)C2O[C@@H]2O[C@H](CO)[C@@H](O)[C@H](O)[C@H]2NC(C)=O)NC(=O)C(N)c2ccc(O)c(c2)Oc2cc(O)cc4c2)c2ccc(O)c(c2)-c2c(O)cc(O)cc21.Cl (stereo partly drawn) [Example 1] , E. coli SKF 12140, MIC = 128

Record CC(=O)N[C@H]1[C@H](OC2c3ccc(c(Cl)c3)Oc3cc4cc(c3O)Oc3ccc(cc3Cl)CC3NC(=O)C(N)c5ccc(O)c(c5)Oc5cc(O)cc(c5)C(NC3=O)C(=O)NC4C(=O)NC3C(=O)NC2C(=O)NC(C(=O)OCCO)c2cc(O)cc(O)c2-c2cc3ccc2O)O[C@H](CO)[C@@H](O)[C@@H]1O.O=C(O)C(F)(F)F (stereo partly drawn) [Example 12] has E. coli SKF 12140 MIC equal to 128

---

Listed molecules paired with reported pKa
Assay: pKa by titration
Assay type: physicochemical
Conditions: methylcellulose ®/water 4:1 (v/v), excess 0.01 M hydrogen chloride, titrated with 0.01 M NaOH
Please give the numeric answer without any surrounding text.

The molecule listed as COC(=O)C1NC(=O)C2NC(=O)C(NC(=O)C3NC(=O)C4NC(=O)C(Cc5ccc(c(Cl)c5)Oc5cc3cc(c5O)Oc3ccc(cc3Cl)C2O[C@@H]2O[C@H](CO)[C@@H](O)[C@H](O)[C@H]2NC(C)=O)NC(=O)C(N)c2ccc(O)c(c2)Oc2cc(O)cc4c2)c2ccc(O)c(c2)-c2c(O)cc(O)cc21.Cl (stereo partly drawn) shows pKa equal to 6.70

Sure, the documented pKa for CCCCOC(=O)C1NC(=O)C2NC(=O)C(NC(=O)C3NC(=O)C4NC(=O)C(Cc5ccc(c(Cl)c5)Oc5cc3cc(c5O)Oc3ccc(cc3Cl)C2O[C@@H]2O[C@H](CO)[C@@H](O)[C@H](O)[C@H]2NC(C)=O)NC(=O)C(N)c2ccc(O)c(c2)Oc2cc(O)cc4c2)c2ccc(O)c(c2)-c2c(O)cc(O)cc21.Cl (stereo partly drawn) is 6.65

Looking up CCOC(=O)C1NC(=O)C2NC(=O)C(NC(=O)C3NC(=O)C4NC(=O)C(Cc5ccc(c(Cl)c5)Oc5cc3cc(c5O)Oc3ccc(cc3Cl)C2O[C@@H]2O[C@H](CO)[C@@H](O)[C@H](O)[C@H]2NC(C)=O)NC(=O)C(N)c2ccc(O)c(c2)Oc2cc(O)cc4c2)c2ccc(O)c(c2)-c2c(O)cc(O)cc21.Cl (stereo partly drawn) , I found its pKa recorded as 6.68
